Kindly supply the reported AFI values for the records listed here.
System: Pieris brassicae
Experiment: Antifeedant activity against Pieris brassicae third-instar larvae reared on compound pre-treated Brassica oleracea L. leaf disks assessed antifeeding rate at 1000 ppm measured after 48 hr by conventional leaf disk method
Assay type: functional
Returns: string containing the number followed by the unit.

Noted for C#C[C@@H]1C[C@H]2O[C@]23C(=C)[C@@H]2[C@@H](OC(=O)C=C[C@@]2(C)[C@H]2CC(=O)OC2(C)C)[C@H](OC(C)=O)[C@@]13C : its AFI reads 37.1%

Noted for C=C1[C@@H]2[C@@H](OC(=O)C=C[C@@]2(C)[C@H]2CC(=O)OC2(C)C)[C@H](OC(C)=O)[C@@]2(C)[C@H](C3=CC(O)OC3=O)C[C@H]3O[C@]132 (stereo partly drawn) : its AFI reads 0%

Noted for C=C1[C@@H]2[C@@H](OC(=O)C=C[C@@]2(C)[C@H]2CC(=O)OC2(C)C)[C@H](OC(C)=O)[C@@]2(C)[C@H](C(=O)O)C[C@H]3O[C@]132 : its AFI reads 0%
